Target: T1, anti-CD28 Fab (SEQ ID NOs: 202, 203)
T1 construct: biotinylated and captured on neutravidin coated plates in the phage ELISA
T1 sequence (VH, as listed by the source, chain 1 of 2): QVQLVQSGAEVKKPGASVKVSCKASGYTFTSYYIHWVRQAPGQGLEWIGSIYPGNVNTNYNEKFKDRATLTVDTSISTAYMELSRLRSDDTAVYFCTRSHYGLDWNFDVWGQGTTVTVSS
T1 sequence (VL, as listed by the source, chain 2 of 2): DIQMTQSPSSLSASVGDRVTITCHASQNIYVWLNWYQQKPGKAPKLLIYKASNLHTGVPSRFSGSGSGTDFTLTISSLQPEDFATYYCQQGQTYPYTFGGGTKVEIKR
Test: phage ELISA on captured Fab;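 also: ELISA with clonal phage supernatants added to wells preincubated with CD28 antigen or with blocking buffer only, bound phage detected by HRP-conjugated anti-M13 antibody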
REPORTED ENDPOINT: Anti-CD28 Fab (SEQ ID NOs: 202, 203) signal

{"columns": ["BINDER", "MEASURED"],
 "data": [
  ["YCDGHSLLYLSKCL (on phage, pIII fusion) [Phage-472]", 1.65],
  ["YCDGHAPEYLTKCL (on phage, pIII fusion; cell for position 6 is missing in the printed row) [Phage-550]", 1.53],
  ["YCDGHSEQYMSKCL (on phage, pIII fusion) [Phage-451]", 1.68],
  ["YCDGHAQEYMVKCL (on phage, pIII fusion) [Phage-510]", 1.61],
  ["YCAGHLAIYMSKCL (on phage, pIII fusion) [Phage-497]", 1.63],
  ["YCDGHSQEYMAHCL (on phage, pIII fusion) [Phage-536]", 1.56],
  ["YCEGHAPVYMFKCL (on phage, pIII fusion) [Phage-547]", 1.54],
  ["YCEGHLGIYMTKCL (on phage, pIII fusion) [Phage-530]", 1.57],
  ["YCAGHLPVYMDKCL (on phage, pIII fusion) [Phage-557]", 1.52],
  ["YCDGHSREYMSKCL (on phage, pIII fusion) [Phage-458]", 1.67]
]}

Would you mind listing Anti-CD28 Fab (SEQ ID NOs: 202, 203) signal for each of the following binders?
1. YCAGHSPEYMQKCL (on phage, pIII fusion) [Phage-511]
2. YCDGHLPIYQAKCL (on phage, pIII fusion) [Phage-571]

Result:
[1.6, 1.49]

Please state Anti-CD28 Fab (SEQ ID NOs: 202, 203) signal for every binder in the list that follows.
1. YCDGHSPEYIGKCL (on phage, pIII fusion) [Phage-467]
2. YCEGHSSEYMWKCL (on phage, pIII fusion) [Phage-490]

Result:
1.66
1.63

List Anti-CD28 Fab (SEQ ID NOs: 202, 203) signal for every entry below, keeping the order given.
1. YCQGHADEYMAKCL (on phage, pIII fusion) [Phage-528]
2. YCEGHIMQYMAQCL (on phage, pIII fusion) [Phage-570]

Result:
1. 1.58
2. 1.49
